B1: tRNA (parent)
chain: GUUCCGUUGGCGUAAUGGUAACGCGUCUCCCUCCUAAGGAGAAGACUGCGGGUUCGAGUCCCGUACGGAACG

# Variants of: B1
# experiment: yeast fitness, log relative to wild type (ln ratio); higher = fitter; tRNA-Arg(CCU), competitive growth, 37 C, 1 M NaCl
measured.attribute: yeast fitness (ln)
Number, no unit, nothing else.

Before answering, review these 5 worked examples.
>>> experimental_result("AUUCCGUUGGCGUAAUGGUAACGCGUUUCCCUCCUAAGGAGACGAUUGCGGGUUCGAGUCCCGUACGGGAUG")
-0.109
>>> experimental_result("GGUCCGUUGGCGUAAUGGUAACGCGUCUCCCUCCUAAGGAGACGAUUGCGGGUUCGAGUCCCGUACGGGACG")
-0.0675
>>> experimental_result("AUUCCUUUGGCGUAAUGGUAACGCGUUUCCCUCCUAAGGAGAAGACUGCGGGUUCGAGUCCCGUAUGGGUUG")
-0.45
>>> experimental_result("ACUCCGUUGGCGUAAUGGUAACGCGUUUCCCUCCUAAGGAGAAGACUGCGGGUUCGAGUCCCGUAUGGAGUG")
-0.127
>>> experimental_result("AUUCCGUUGGCGUAAUGGUAACGCGUCUCCCUCCUAAGGAGACGACUGCGGGUUCGAGUCCCGUACGGGUUG")
-0.366

// yeast fitness (ln) lookup, key: GCUCCAUUGGCGUAAUGGUAACGCGUCUCCCUCCUAAGGAGAAGAUUGCGGGUUCGAGUCCCGUACGGGUUG
-0.183

What do you get for AUUCCGUUGGCGUAAUGGUAACGCGUCUCCCUCCUAAGGAGAAGACUGCGGGUUCGAGUCCCGUAUGGAUUG ?
-0.212

Item: GCUCCGUUGGCGUAAUGGUAACGCGUCUCCCUCCUAAGGAGACGAUUGCGGGUUCGAGUCCCGUAUGGGUCG
-0.191

Okay, and AUUCCUUUGGCGUAAUGGUAACGCGUCUCCCUCCUAAGGAGAAGAUUGCGGGUUCGAGUCCCGUACGGAACG ?
-0.0505

Entry to check: AUUCCGUUGGCGUAAUGGUAACGCGUCUCCCUCCUAAGGAGACGAUUGCGGGUUCGAGUCCCGUAUGGAGUG
-0.192

For GGUCCUUUGGCGUAAUGGUAACGCGUCUCCCUCCUAAGGAGACGACUGCGGGUUCGAGUCCCGUACGGAGUG then?
-0.282

The measured values listed here are drawn from the RNAGym collection of RNA variant scans (doi:10.1038/s41586-018-0170-7).
